target: Muscarinic acetylcholine receptor M1 (Homo sapiens, UniProt P11229); assay: Displacement of [3H]NMS from human muscarinic M1 receptor expressed in CHOK1 cells by microplate scintillation counting
Sequence (P11229 whole entry): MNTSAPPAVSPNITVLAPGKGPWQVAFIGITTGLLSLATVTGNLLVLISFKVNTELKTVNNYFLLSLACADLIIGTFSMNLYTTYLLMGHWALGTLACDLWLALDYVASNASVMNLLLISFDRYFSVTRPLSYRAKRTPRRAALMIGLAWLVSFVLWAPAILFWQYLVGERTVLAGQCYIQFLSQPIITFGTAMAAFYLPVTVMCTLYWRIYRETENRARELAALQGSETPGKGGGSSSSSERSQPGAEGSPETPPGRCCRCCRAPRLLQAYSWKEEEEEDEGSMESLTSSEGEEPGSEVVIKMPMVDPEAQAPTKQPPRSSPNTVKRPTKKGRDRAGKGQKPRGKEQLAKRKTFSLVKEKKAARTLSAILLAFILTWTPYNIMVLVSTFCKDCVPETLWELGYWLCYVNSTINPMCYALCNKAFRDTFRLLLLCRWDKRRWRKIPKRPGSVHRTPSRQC
Criterion: IC50 strictly less than 0.3 nM. Met: satisfied. Not met: not satisfied.

Input line: Does CC(C(=O)O[C@H]1C[N+]2(CCCOc3ccccc3)CCC1CC2)(c1cccs1)c1cccs1.[Br-] have IC50 strictly under 0.3 nM?
Output line: not satisfied

Input line: Does O=C(O[C@H]1C[N+]2(CCCOc3ccccc3)CCC1CC2)[C@@](O)(c1ccccc1)c1cccs1.[Br-] have IC50 strictly under 0.3 nM?
Output line: satisfied

Input line: Does O=C(O[C@H]1C[N+]2(CCCOc3ccccc3)CCC1CC2)C(c1cccs1)c1cccs1.[Br-] have IC50 strictly under 0.3 nM?
Output line: not satisfied

Input line: Does CC1(C(=O)O[C@H]2C[N+]3(CCCOc4ccccc4)CCC2CC3)c2ccccc2Oc2ccccc21.[Br-] have IC50 strictly under 0.3 nM?
Output line: satisfied

Input line: Does O=C(O[C@H]1C[N+]2(CCCCc3ccccc3)CCC1CC2)C(O)(c1cccs1)c1cccs1.[Br-] have IC50 strictly under 0.3 nM?
Output line: satisfied

====

Target: Muscarinic acetylcholine receptor M2 (Homo sapiens, UniProt P08172)
Sequence (P08172 whole entry): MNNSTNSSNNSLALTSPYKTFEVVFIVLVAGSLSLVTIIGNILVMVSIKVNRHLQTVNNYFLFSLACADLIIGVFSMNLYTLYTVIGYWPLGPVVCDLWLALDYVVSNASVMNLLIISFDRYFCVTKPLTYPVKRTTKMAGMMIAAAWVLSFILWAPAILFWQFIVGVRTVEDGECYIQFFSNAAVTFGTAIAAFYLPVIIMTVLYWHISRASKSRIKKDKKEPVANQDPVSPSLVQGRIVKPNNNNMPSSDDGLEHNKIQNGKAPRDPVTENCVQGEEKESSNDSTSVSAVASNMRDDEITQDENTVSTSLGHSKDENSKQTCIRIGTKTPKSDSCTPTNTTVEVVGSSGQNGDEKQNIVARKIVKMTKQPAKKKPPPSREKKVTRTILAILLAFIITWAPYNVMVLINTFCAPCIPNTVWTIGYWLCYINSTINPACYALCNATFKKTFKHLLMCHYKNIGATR
Assay: Displacement of [3H]NMS from human muscarinic M2 receptor expressed in CHOK1 cells by microplate scintillation counting
pIC50: −log10 of the molar value.
# binarize pIC50: threshold 9 inclusive, high side label 1, low side label 0

Input line: Entry O=C(O[C@H]1C[N+]2(CCCOc3ccccc3)CCC1CC2)[C@](O)(c1cccs1)C1CCCC1.[Br-] : is its pIC50 no less than 9?
Output line: label 1

Input line: Entry O=C(O[C@H]1C[N+]2(CCCOc3ccccc3)CCC1CC2)[C@@](O)(c1ccccc1)c1cccs1.[Br-] : is its pIC50 no less than 9?
Output line: label 1

Input line: Entry CC1(C(=O)O[C@H]2C[N+]3(CCCOc4ccccc4)CCC2CC3)c2ccccc2Oc2ccccc21.[Br-] : is its pIC50 no less than 9?
Output line: label 1

Input line: Entry O=C(O[C@H]1C[N+]2(CCCOc3ccccc3)CCC1CC2)C(c1cccs1)c1cccs1.[Br-] : is its pIC50 no less than 9?
Output line: label 1

Input line: Entry O=C(O[C@H]1C[N+]2(CCc3ccccc3)CCC1CC2)C1(O)c2ccccc2-c2ccccc21.[Br-] : is its pIC50 no less than 9?
Output line: label 0

Input line: Entry O=C(O[C@H]1C[N+]2(CCCCc3ccccc3)CCC1CC2)C(O)(c1cccs1)c1cccs1.[Br-] : is its pIC50 no less than 9?
Output line: label 1
